# System: VchCAST RNA-guided transposition machinery (E. coli BL21(DE3) host, lacZ target)
# protocol_text: relative integration efficiency (T-RL orientation) vs wild-type transposon end (log2 (normalized fold change)); transposon end mutated: right end (5 bp flank + 75 bp right end); higher = more efficient transposition
relative integration efficiency (log2) below -1 gives 0 (no); relative integration efficiency (log2) at or above it gives 1 (yes).

Examples with answers:
INSERT INTO assay_data (macromolecule_sequence, qualitative_label) VALUES
  ('ACATTTGTTGATACACCCATAAATTGATAATTACAACCATAAGTTGATATTTTTCAGTGGGTATTTAACTATAACGCTCTGATCATAGTCAGACCAACATTGCTACGACCCGTATTCGCACCGACAC', '1 (yes)'),
  ('ACATTTGTTGATACAACCATAAAATGATAATTACACCCATAATAACATAATTATCACACCCATAAATTGATATTGCCTCTGATCATAGTCAGACCAACATTGCTACGACCCGTATTCGCACCGACAC', '0 (no)');

### Prompt Tell me whether relative integration efficiency (log2) is at least -1 here: `ACATTGGTCGATACAACCATAAAATGATAATTACACCCATAAATTGATAATTATCACACCCAATTTAACTATAACGCTCTGATCATAGTCAGACCAACATTGCTACGACCCGTATTCGCACCGACAC`
### Response 0 (no)

### Prompt Tell me whether relative integration efficiency (log2) is at least -1 here: `ACATTTGTTGATACAACCATAAAATGATAATTACCCCCATAAATTGATAATTATCCCACCCCATTTAACTATAACGCTCTGATCATAGTCAGACCAACATTGCTACGACCCGTATTCGCACCGACAC`
### Response 0 (no)

### Prompt Tell me whether relative integration efficiency (log2) is at least -1 here: `ACATTTGTTGATACACCCATAAATTGATATTGCCAACCATAAAGTGATATTTATCACAACCATAAAATGATAATTACTCTGATCATAGTCAGACCAACATTGCTACGACCCGTATTCGCACCGACAC`
### Response 1 (yes)
